Data origin, for the record: the supplement of paper PMC4932681

Tested on: BT-474
Test: drug sensitivity score (DSS) (DSS (dimensionless)); higher = more sensitive; extreme values may be limits of the assay
Conditions: 4-OH-tamoxifen in medium 0 µM; 72 h
VALUE KIND: drug sensitivity score
Number, no unit, nothing else.

query: What value of drug sensitivity score has been recorded for this entry: O=C(CCBr)N1CCN(C(=O)CCBr)CC1 [Pipobroman]
result: 0

query: Further, for Clc1ccc(Nc2nnc(Cc3ccncc3)c3ccccc23)cc1 [Vatalanib] ?
result: 0

query: Further, for C=CC[C@@H]1/C=C(\C)C[C@H](C)C[C@H](OC)[C@H]2O[C@@](O)(C(=O)C(=O)N3CCCC[C@H]3C(=O)O[C@H](/C(C)=C/[C@@H]3CC[C@@H](O)[C@H](OC)C3)[C@H](C)[C@@H](O)CC1=O)[C@H](C)C[C@@H]2OC [Tacrolimus (FK 506)] ?
result: 0

query: Further, for CS(=O)(=O)CCNCc1ccc(-c2ccc3ncnc(Nc4ccc(OCc5cccc(F)c5)c(Cl)c4)c3c2)o1 [Lapatinib] ?
result: 8.29

query: Further, for Nc1nc2[nH]cc(CCc3ccc(C(=O)N[C@@H](CCC(=O)O)C(=O)O)cc3)c2c(=O)[nH]1 [Pemetrexed] ?
result: 0

query: Further, for CNC(=O)c1cc(Oc2ccc(NC(=O)Nc3ccc(Cl)c(C(F)(F)F)c3)c(F)c2)ccn1 [Regorafenib (BAY 73-4506)] ?
result: 1.48

query: Further, for Cc1cc(Nc2cc(CN3CCOCC3)c3nc(C)c(Cc4ccc(Cl)cc4F)n3n2)n[nH]1 ?
result: 0

###

System: MCF-7
Experiment: viability inhibition at highest dose (% inhibition); higher = more growth inhibition
Settings: 4-OH-tamoxifen in medium 0 µM; 72 h
# strict inequality: viability inhibition at highest dose < 20 yields Met, everything else yields Not met

query: Is 20 strictly greater than the compound's reported viability inhibition at highest dose? compound: CO[C@@H]1[C@H](N(C)C(=O)c2ccccc2)C[C@H]2O[C@]1(C)n1c3ccccc3c3c4c(c5c6ccccc6n2c5c31)C(=O)NC4 [Midostaurin (PKC412)] (drug 10000 nM)
result: Met

query: Further, for COc1cccc2c1C(=O)c1c(O)c3c(c(O)c1C2=O)C[C@@](O)(C(C)=O)C[C@@H]3O[C@H]1C[C@H](N)[C@H](O)[C@H](C)O1 [Daunorubicin] (drug 1000 nM) ?
result: Not met

query: Further, for CC[C@H](CO)Nc1nc(NCc2ccccc2)c2ncn(C(C)C)c2n1 [Seliciclib (Roscovitine)] (drug 10000 nM) ?
result: Not met

query: Further, for Nc1ncn([C@H]2C[C@H](O)[C@@H](CO)O2)c(=O)n1 [Decitabine (Dacogen)] (drug 10000 nM) ?
result: Met

query: Further, for CC(=O)OC[C@H]1O[C@@H]([S-])[C@H](OC(C)=O)[C@@H](OC(C)=O)[C@@H]1OC(C)=O.CCP(CC)CC.[Au+] [Auranofin] (drug 2500 nM) ?
result: Not met

query: Further, for Nc1nc2[nH]cc(CCc3ccc(C(=O)N[C@@H](CCC(=O)O)C(=O)O)cc3)c2c(=O)[nH]1 [Pemetrexed] (drug 10000 nM) ?
result: Met

query: Further, for CC[C@@H]1C(=O)OC[C@@H]1Cc1cncn1C [Pilocarpine] (drug 40000 nM) ?
result: Met

query: Further, for C=CCn1c(=O)c2cnc(Nc3ccc(N4CCN(C)CC4)cc3)nc2n1-c1cccc(C(C)(C)O)n1 [MK-1775] (drug 10000 nM) ?
result: Not met

query: Further, for CNC(=O)c1ccc(N2C(=S)N(c3ccc(C#N)c(C(F)(F)F)c3)C(=O)C23CCC3)cc1F [RD162] (drug 10000 nM) ?
result: Met

query: Further, for CCCS(=O)(=O)Nc1ccc(F)c(C(=O)c2c[nH]c3ncc(-c4ccc(Cl)cc4)cc23)c1F [Vemurafenib (PLX4032)] (drug 10000 nM) ?
result: Met
